biological target: C-X-C chemokine receptor type 6 (Homo sapiens) (UniProt O00574); test: potency against CXCR6 with APJ panel – cell-based, beta-arrestin, DiscoveRx, uHTS hits, dose response (AID 624129); details: CXCR6 beta-arrestin (DiscoveRx) antagonist cell assay, CXCR6, run 1, dose range 2
Sequence (O00574 whole entry, looked up): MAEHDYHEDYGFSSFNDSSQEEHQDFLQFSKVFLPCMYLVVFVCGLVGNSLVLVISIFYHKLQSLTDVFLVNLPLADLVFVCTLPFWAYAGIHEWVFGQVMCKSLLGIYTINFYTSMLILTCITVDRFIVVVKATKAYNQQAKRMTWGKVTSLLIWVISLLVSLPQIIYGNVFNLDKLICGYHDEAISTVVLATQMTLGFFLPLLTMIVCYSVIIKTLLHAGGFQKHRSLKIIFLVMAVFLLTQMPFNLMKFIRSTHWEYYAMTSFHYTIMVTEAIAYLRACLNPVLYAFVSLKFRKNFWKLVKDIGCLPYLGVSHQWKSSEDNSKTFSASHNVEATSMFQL
pIC50: −log10 of the molar value.
Decide using pIC50: a value greater than or equal to 5 is Criterion met, a smaller one is Criterion not met.

O=C(N/N=C(\c1ccccc1)c1cccnc1)c1cccc(F)c1 : Criterion met
Cc1ccccc1NC(=S)NNc1ncc(C(F)(F)F)cc1Cl : Criterion not met
C=C1C(=O)O[C@@H]2C[C@@H](C)[C@@H]3C=CC(=O)[C@@]3(C)[C@@H](OC(=O)CC(=O)O[C@H]3[C@@H]4C(=C)C(=O)O[C@@H]4C[C@@H](C)[C@@H]4C=CC(=O)[C@]43C)[C@H]12 : Criterion met
Cc1c(CCCl)c(Cl)n2c(nc3ccccc32)c1C#N : Criterion met
CC(=O)NS(=O)(=O)c1ccc(Nc2ccc([N+](=O)[O-])c3nonc23)cc1 : Criterion not met
